B1: POMT2 (parent)
chain: LRGGGQVLLGWTLHYFPFFLMGRV

Variants of: B1
Procedure Text: protein stability index of a GFP-peptide fusion (GPS, HEK-293T) (PSI 1-6); higher = more stable;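 further: lentivirally expressed fusions sorted by FACS into six bins by GFP to DsRed ratio, PSI derived from sequencing read proportions per bin multiplied by bin number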
Test Context: c terminus: a fixed tail appended
Reported protein stability index values for a set of variants
Test Readout: protein stability index

    variant_identifier             test_readout  numeric_value
 0                T12I  protein stability index           3.35
 1                P17Q  protein stability index           4.16
 2                 L9T  protein stability index           2.66
 3                G10I  protein stability index           1.92
 4                 L1A  protein stability index           3.17
 5                G10Y  protein stability index           3.25
 6                 G3M  protein stability index           1.82
 7                 L9H  protein stability index           1.91
 8                W11H  protein stability index            2.1
 9                 L8A  protein stability index           2.97
10                 Q6F  protein stability index           2.24

These data points were gathered from the supplement of paper PMC10567573.
